Reference source for all entries: patent EP3002006A1

experiment: Solubility of crystalline modifications of Febuxostat in phosphate buffer; assay type: physicochemical; conditions: aqueous buffer, n=3, read-out: Solubility
QUANTITY KIND: Solubility (µg/mL)
Answer in µg/mL, number only, no unit symbol.

Request: Please report Solubility for the following molecule: Cc1nc(-c2ccc(OCC(C)C)c(C#N)c2)sc1C(=O)O [Form "F10"]
Result: 260
